Assignment: determine reported normalized RNA/DNA level with ligand (log10) for the given variants.
B1: library; a variant is named by its letters at N, in order (parent)
chain: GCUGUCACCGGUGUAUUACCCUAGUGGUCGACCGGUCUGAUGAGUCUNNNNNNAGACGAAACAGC

Variants of: B1
ASSAY INFO: normalized RNA/DNA level with ligand (relative to sTRSVctl = 100) (log10 (% of sTRSVctl)); ligand: hypoxanthine (xanthine aptamer); higher = less ribozyme self-cleavage, higher mRNA level
SETTINGS: ligand concentration (+) RNA-Seq: 5 mM, HEK293T, reporter: mCherry (pCS4076), ligand present: yes
Give bare numbers.

Before answering, review these 5 worked examples.
> print(dat)
   mutation.spec  measured
1         CAUGUA      1.91
2         AGGCAU      1.92
3         AGCGGG      1.96
4         UGGCUU      1.97
5         CACUAG       1.9

Consider the following items and state reported normalized RNA/DNA level with ligand (log10) for each.
1. GGCGGC
2. CAUUGC
3. GAACUU
4. CCCGUU
5. AGCGUC
6. ACUACU
7. UCCUCA

result:
1.89
1.94
1.91
1.93
1.97
1.93
2

Consider the following items and state reported normalized RNA/DNA level with ligand (log10) for each.
1. UAAGGC
2. CGGGUA
3. GGGAUU

result:
1. 1.94
2. 1.94
3. 1.99
